TARGET_UNDER_TEST: VA387 P dimers binding to type A and B saliva HBGAs (Norovirus GII.4 (Human calicivirus NLV/VA98387/1998), UniProt Q913Z3)
Sequence (Q913Z3 entry or part of it): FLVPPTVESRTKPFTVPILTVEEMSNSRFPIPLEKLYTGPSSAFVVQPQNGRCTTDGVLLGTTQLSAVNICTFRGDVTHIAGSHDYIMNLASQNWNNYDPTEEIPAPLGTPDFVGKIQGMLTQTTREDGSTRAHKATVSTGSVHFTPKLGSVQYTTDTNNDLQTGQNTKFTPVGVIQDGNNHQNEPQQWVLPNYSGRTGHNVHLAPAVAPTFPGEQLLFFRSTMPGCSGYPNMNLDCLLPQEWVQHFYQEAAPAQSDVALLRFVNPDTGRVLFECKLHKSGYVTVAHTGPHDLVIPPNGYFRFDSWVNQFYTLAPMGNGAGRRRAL
ASSAY_SUMMARY: biochemical
Design: species or system GII.4 NoV (VA387)
PROTOCOL_CONDITIONS: IC50 Saliva B, blocking assay, type B saliva; mean ± standard deviation
pIC50: −log10 of the molar value.
QUANTITY_NAME: pIC50

# COMPOUND, QUANTITY_NAME, ENDPOINT_RESULT
records = [
    ("CC(CCC(=O)O)C1CCC2C3CC=C4CC(O)CCC4(C)C3CCC12C (centres unmarked)", "pIC50", 5.12),
    ("C/C(=N/O)C1=CCC2C3CC[C@H]4C/C(=N\\O)CC[C@]4(C)C3CC[C@]12C (some centres unmarked)", "pIC50", 5.60),
    ("C[C@]12CC[C@H](O)C[C@@H]1CC[C@@H]1[C@@H]2CC[C@@]2(C)[C@H]1CC[C@]2(C)O", "pIC50", 5.47),
    ("O=[N+]([O-])c1ccc2c(c1)C1C=CCC1C(C1CC=CCC1)N2 (centres unmarked)", "pIC50", 4.88),
    ("CC1(C)CC(=O)C2=C(C1)c1c(ccc3ccccc13)NC2", "pIC50", 4.83),
]

====

TARGET_UNDER_TEST: VA387 P dimers binding to type A and B saliva HBGAs (Norovirus GII.4 (Human calicivirus NLV/VA98387/1998), UniProt Q913Z3)
ASSAY_SUMMARY: biochemical
Parameters: species or system GII.4 NoV (VA387)
PROTOCOL_CONDITIONS: read-out: IC50 Saliva B; blocking assay, type B saliva; mean ± standard deviation
QUANTITY_NAME: IC50 (µM)

# COMPOUND, ENDPOINT_RESULT
rows = [
    ("CC1CCc2c(sc3ncn(C(C)C(=O)N/N=C/c4c(O)ccc5ccccc45)c(=O)c23)C1 (stereo not shown)", 16.8),
]

====

ASSAY_SUMMARY: MTS cytotoxicity assay
Type: cell-based, human (HeLa); rhesus monkey (LLC-MK2)
QUANTITY_NAME: CC50 at 3 days (µM)

# MOLECULE, UNIT_TEXT, ENDPOINT_RESULT
measured = [
    ("C/C(=N/O)C1=CCC2C3CC[C@H]4C/C(=N\\O)CC[C@]4(C)C3CC[C@]12C (some centres unmarked) [ZINC04041115]", "µM", 203),
    ("C[C@]12CCC3C(CC[C@H]4CC=CC[C@]34C)C1CC/C2=N/NC(N)=S (some centres unmarked) [ZINC04026813]", "µM", 212),
]

====

TARGET_UNDER_TEST: VA387 P dimers binding to type A and B saliva HBGAs (Norovirus GII.4 (Human calicivirus NLV/VA98387/1998))
ASSAY_SUMMARY: biochemical
Design: species or system GII.4 NoV (VA387)
PROTOCOL_CONDITIONS: IC50 Saliva B, blocking assay, type B saliva; mean ± standard deviation
pIC50: −log10 of the molar value.

# COMPOUND, pIC50
rows = [
    ("C[C@]12CCC3C(CC[C@H]4CC=CC[C@]34C)C1CC/C2=N/NC(N)=S (stereo partly drawn)", 5.05),
    ("CC12CCC3C(CCC4CC(=O)CCC43C)C1CCC2O (stereo not drawn)", 4.45),
    ("O=C1CC(c2ccc([N+](=O)[O-])cc2)c2ccc3ccccc3c2N1 (stereo not drawn)", 4.58),
    ("O=C(O)c1ccc(C2Nc3c(F)cccc3C3C=CCC32)cc1 (stereo not drawn)", 4.40),
    ("COc1cc([N+](=O)[O-])cc2c1NC(c1ccccn1)C1CC=CC21 (stereo not drawn)", 4.61),
    ("Nc1ccc2c(c1)C1C=CCC1C(c1ccc([N+](=O)[O-])cc1)N2 (stereo not drawn)", 4.89),
    ("Cc1ccc(C2CC(=O)Nc3c2ccc2ccccc32)cc1[N+](=O)[O-] (stereo not drawn)", 4.47),
    ("Cc1noc2c1C1(C)CCC3C(CC=C4CC(O)CCC43C)C1C2 (stereo not drawn)", 4.46),
    ("CC(=O)OCC(=O)C1CCC2C3CC=C4CC(O)CCC4(C)C3CCC12C (stereo not drawn)", 4.52),
]

====

TARGET_UNDER_TEST: VA387 P dimers binding to type A and B saliva HBGAs (Norovirus GII.4 (Human calicivirus NLV/VA98387/1998))
ASSAY_SUMMARY: biochemical
Set-up: species or system GII.4 NoV (VA387)
PROTOCOL_CONDITIONS: read-out: IC50 Saliva A; blocking assay, type A saliva; mean ± standard deviation

# MOLECULE, IC50, µM
records = [
    ("CC1CCc2c(sc3ncn(C(C)C(=O)N/N=C/c4c(O)ccc5ccccc45)c(=O)c23)C1 (stereo not shown)", 17),
]

====

TARGET_UNDER_TEST: VA387 P dimers binding to type A and B saliva HBGAs (Norovirus GII.4 (Human calicivirus NLV/VA98387/1998))
ASSAY_SUMMARY: biochemical
Design: species or system GII.4 NoV (VA387)
PROTOCOL_CONDITIONS: IC50 Saliva A, blocking assay, type A saliva; mean ± standard deviation
Hi! Could you tag entries with IC50 below 10 µM as rule met, and those at or above as rule not met? Much appreciated.

# COMPOUND, LABEL
rows = [
    ("C[C@]12CC[C@H](O)C[C@@H]1CC[C@@H]1[C@@H]2CC[C@@]2(C)[C@H]1CC[C@]2(C)O", "rule met"),
    ("C/C(=N/O)C1=CCC2C3CC[C@H]4C/C(=N\\O)CC[C@]4(C)C3CC[C@]12C (some centres unmarked)", "rule met"),
    ("O=C1CC(c2ccc([N+](=O)[O-])cc2)c2ccc3ccccc3c2N1 (centres unmarked)", "rule not met"),
    ("COc1cc([N+](=O)[O-])cc2c1NC(c1ccccn1)C1CC=CC21 (centres unmarked)", "rule not met"),
    ("O=C(O)c1ccc(C2Nc3c(F)cccc3C3C=CCC32)cc1 (centres unmarked)", "rule not met"),
    ("CC12CCC3C(CCC4CC(=O)CCC43C)C1CCC2O (centres unmarked)", "rule not met"),
    ("CC1(C)CC(=O)C2=C(C1)c1c(ccc3ccccc13)NC2", "rule not met"),
    ("CC(CCC(=O)O)C1CCC2C3CC=C4CC(O)CCC4(C)C3CCC12C (centres unmarked)", "rule met"),
    ("CC(=O)OCC(=O)C1CCC2C3CC=C4CC(O)CCC4(C)C3CCC12C (centres unmarked)", "rule not met"),
    ("Nc1ccc2c(c1)C1C=CCC1C(c1ccc([N+](=O)[O-])cc1)N2 (centres unmarked)", "rule not met"),
    ("O=[N+]([O-])c1ccc2c(c1)C1C=CCC1C(C1CC=CCC1)N2 (centres unmarked)", "rule not met"),
    ("C[C@]12CCC3C(CC[C@H]4CC=CC[C@]34C)C1CC/C2=N/NC(N)=S (some centres unmarked)", "rule met"),
    ("Cc1ccc(C2CC(=O)Nc3c2ccc2ccccc32)cc1[N+](=O)[O-] (centres unmarked)", "rule not met"),
    ("Cc1noc2c1C1(C)CCC3C(CC=C4CC(O)CCC43C)C1C2 (centres unmarked)", "rule not met"),
]
